- test summary: Intrinsic clearance in liver microsomes, rat
- Assay type: in vitro ADME
- measurement setup: rat liver microsomes, Method 1
Examples of compounds with documented Half-Life (T1/2) (min), Rat follow.

[
  {
    "compound": "CNC(=O)c1[nH]c(C(=O)N[C@H]2CC[C@H](OC)CC2)cc1OC(C)c1ccccc1 (single isomer, unassigned) [Example 100]",
    "modifier": "=",
    "Half-Life (T1/2) (min), Rat": 19
  },
  {
    "compound": "CNC(=O)c1[nH]c(C(=O)NC2CCC(F)(F)CC2)cc1OC(C)c1ccccc1 (single isomer, unassigned) [Example 104]",
    "modifier": "=",
    "Half-Life (T1/2) (min), Rat": 10
  },
  {
    "compound": "CNC(=O)c1[nH]c(C(=O)N[C@H]2CC[C@H](OC)CC2)cc1OC(C)c1ccccc1 (single isomer, unassigned) [Example 99]",
    "modifier": "=",
    "Half-Life (T1/2) (min), Rat": 39
  },
  {
    "compound": "CNC(=O)c1[nH]c(C(=O)N[C@H]2CC[C@H](O)CC2)cc1OC(C)c1ccccc1 (single isomer, unassigned) [Example 98]",
    "modifier": ">",
    "Half-Life (T1/2) (min), Rat": 60
  }
]

====

- test summary: Pharmacokinetics and plasma concentration of Example 101 in Lewis rats after oral administration (CIA study)
- Assay type: in vivo, Lewis rat
- measurement setup: Lewis, rat, plasma, po, 10 mg/kg, oral, day 20, 10 mg/kg, per test subject; read-out: Tmax

[
  {
    "molecule": "CNC(=O)c1[nH]c(C(=O)NC2CCC2)cc1O[C@@H](C)c1ccccc1 (stereo in doubt)",
    "Tmax, min": 30
  }
]

====

- test summary: Pharmacokinetics and plasma concentration of Example 101 in Lewis rats after oral administration (CIA study)
- Format: in vivo, Lewis rat
- measurement setup: Lewis, rat, plasma, oral, 10 mg/kg, plasma, oral, day 0, 10 mg/kg, 12 h; read-out: Mean Concentration
measure name: concentration at 12 h (ng/mL)

[
  {
    "compound": "CNC(=O)c1[nH]c(C(=O)NC2CCC2)cc1O[C@@H](C)c1ccccc1 (stereo in doubt) [Example 101]",
    "measure name": "concentration at 12 h",
    "readout value": 799
  }
]

====

- target or test system: BRD4 BD2 (Homo sapiens (Human))
- test summary: NanoBRET bromodomain assay, NanoLuc-BRD4-BD2 fusion in HEK293 cells;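 also: tracer displacement BRET read in transfected cells after 2 h compound exposure at 37 °C, signal in milliBRET units corrected against no-tracer background wells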
- measurement setup: IC50 for BRD4 BD1 divided by IC50 for BRD4 BD2; qualitative if an IC50 is at the upper limit

[
  {
    "molecule": "CNC(=O)c1[nH]c(C(=O)NC2COC2)cc1OC(C)c1ccc(Cl)cc1 (single isomer, unassigned)",
    "target or test system": "BRD4 BD2 (Homo sapiens (Human))",
    "Fold selectivity": "XX (Fold >50 and ≤200)"
  },
  {
    "molecule": "CNC(=O)c1[nH]c(C(=O)NC(C)C)cc1O[C@@H](C)c1ccc(Cl)cc1",
    "target or test system": "BRD4 BD2 (Homo sapiens (Human))",
    "Fold selectivity": "XX (Fold >50 and ≤200)"
  },
  {
    "molecule": "CNC(=O)c1[nH]c(C(=O)NCC(F)(F)F)cc1O[C@@H](C)c1ccccc1",
    "target or test system": "BRD4 BD2 (Homo sapiens (Human))",
    "Fold selectivity": "XX (Fold >50 and ≤200)"
  }
]
